# ASSAY DETAILS: logp: n-octanol/water partition coefficient by reversed phase HPLC
# Type: physicochemical
# TEST PARAMETERS: h2o/ch3cn, B isomer (possible geometric isomer), read-out: logp (logarithm to base ten of the n-octanol/water partition coefficient)
# Description: *) logp: Logarithm to base ten of the n-octanol/water partition coefficient, determined by reversed phase HPLC analysis using H2 O/CH3 CN. *^) logp: Logarithm to base ten of the noctanol/water partition coefficient, determined by reversed phase HPLC analysis using H2
Please go through the items and note down their chromatographic logP.
Kindly provide the number alone.

If you can, please state the reported chromatographic logP value of CC=CC1OC2(CCC(c3ccc(C4COC(c5c(F)cccc5F)=N4)cc3)CC2)OC1C=CC (stereo not drawn) .
5.37

// query: C=CCCCCC1COC2(CCC(c3ccc(C4COC(c5c(F)cccc5F)=N4)cc3)CC2)O1 (stereo not drawn)
5.7

// query: CCCCOCC1COC2(CCC(c3ccc(C4COC(c5c(F)cccc5F)=N4)cc3)CC2)O1 (stereo not drawn)
5

// query: Fc1cccc(F)c1C1=NC(c2ccc(C3CCC4(CC3)OCC(COc3ccc(Cl)cc3)O4)cc2)CO1 (stereo not drawn)
5.16

// query: CC1OC2(CCC(c3ccc(C4COC(c5c(F)cccc5F)=N4)cc3)CC2)OC1C (stereo not drawn)
4.31

// query: CC1CC(C)OC2(CCC(c3ccc(C4COC(c5c(F)cccc5F)=N4)cc3)CC2)O1 (stereo not drawn)
4.84

---

# Tested on: mustard beetle larvae (Phaedon cochleariae)
# ASSAY DETAILS: Phaedon larvae test
# Assay type: in vivo
# TEST PARAMETERS: Phaedon cochleariae, 168 h; active compound concentration 0.01%, after 7 days; read-out: destruction in %
METRIC NAME: mortality at 0.01 % (%)
Just the number please, in %, no unit attached.

Could you share what mortality at 0.01 % was measured for CC(C)(C)C1COC2(CCC(c3ccc(C4COC(c5c(F)cccc5F)=N4)cc3)CC2)O1 (centres unmarked) [Example 15] , tested on mustard beetle larvae (Phaedon cochleariae)?
100

// query: CC(C)ON=C1CCC(c2ccc(C3COC(c4c(F)cccc4F)=N3)cc2)CC1 (centres unmarked) [Example 4]
90

// query: Fc1cccc(F)c1C1=NC(c2ccc(C3CCC4(CC3)OCC(c3ccc(Cl)cc3)O4)cc2)CO1 (centres unmarked) [Example 5]
100

// query: Fc1cccc(F)c1C1=NC(c2ccc(C3CCC(=NOCc4ccc(C(F)(F)F)cc4Cl)CC3)cc2)CO1 (centres unmarked) [Example 20]
100

// query: Fc1cccc(F)c1C1=NC(c2ccc(C3CCC4(CC3)OCC(c3cccc(Cl)c3)O4)cc2)CO1 (centres unmarked) [Example 10]
100

Data credit: patent US6015823A
